Taken from the METLIN SMRT retention time set (Domingo-Almenara et al. 2019).

assay: gradient 5% acetonitrile 3 min, to 50% in 2 min, to 85% in 15 min, held 3 min, 100 µL/min; details: column: Zorbax Extend-C18 2.1 x 50 mm; eluents: water / acetonitrile, 0.1% formic acid
I would appreciate it if you labelled entries yes when RP-LC retention time is 800 s or higher, otherwise no.

Compound: Cc1cc(Cl)ccc1S(=O)(=O)N1CCC(OC2CCN(c3ccccc3)C2=O)CC1 (stereo not given)
Class Label: yes
//
Compound: CC1CCN(S(=O)(=O)c2cccn(Cc3cc(F)cc(F)c3)c2=O)CC1
Class Label: yes
//
Compound: CC(Oc1ccc(F)cc1)C(=O)Nc1ccc(-c2nc(-c3ccc(F)cc3)no2)cc1 (stereo not given)
Class Label: yes
//
Compound: CCc1noc2nc(C)n(CC(=O)NCc3ccc(OC(C)C)cc3)c(=O)c12
Class Label: no
//
Compound: Cn1nc(-c2nc(C3CC3)no2)c2c1CCN(C(=O)Nc1ccc(Cl)cc1)C2
Class Label: yes
//
Compound: Cc1ccc(-n2nc(N3CCN(C(=O)Nc4ccccc4Cl)CC3)ccc2=O)cc1
Class Label: yes
//
Compound: CCCn1c(=O)sc2cc(S(=O)(=O)N3CCC(C(=O)Nc4cccc(C)n4)CC3)ccc21
Class Label: yes
//
Compound: Cc1noc(C)c1S(=O)(=O)N1C[C@@H](F)C[C@H]1C(=O)N1CCCCC1
Class Label: no
//
Compound: CC1(C(=O)NCc2ccc(F)cc2)CCCN(S(=O)(=O)c2ccc(F)cc2F)C1 (stereo not given)
Class Label: yes
//
Compound: Cc1ccc(-c2cn3c(n2)N(C(=O)c2cnccn2)CCC3)cc1
Class Label: no

Turning to the following compound.
Is reported RP-LC retention time greater than or equal to 800 s here: CC1=C(c2ccccc2)S(=O)(=O)N=C1N1CCCN(C(=O)c2ccc(F)cc2F)CC1
yes

---

Below: a set of entries, each annotated with reported RP-LC retention time.
experiment: gradient 5% acetonitrile 3 min, to 50% in 2 min, to 85% in 15 min, held 3 min, 100 µL/min; conditions: column: Zorbax Extend-C18 2.1 x 50 mm; eluents: water / acetonitrile, 0.1% formic acid
Lab book: enter the figure in s, no units written.

Below are worked cases with known answers.
Molecule: Cc1cccc(C)c1OCC(=O)Nc1nc(-c2ccccc2)cs1
RP-LC retention time, s: 1180

Molecule: O=C(NCCc1nnc2ccc(SCc3ccccn3)nn12)c1ccccc1
RP-LC retention time, s: 575

Molecule: O=C(CSCc1ccccc1)N1CCC(c2nnc(C(F)(F)F)o2)CC1
RP-LC retention time, s: 857

Molecule: CCc1nc2cc3c(cc2n1CC(=O)Nc1ccccc1OC)OCCO3
RP-LC retention time, s: 627

Molecule: COc1cccc(C(=O)Nc2cccn3ncnc23)c1
RP-LC retention time, s: 710

Molecule: CCOc1ccc(NS(=O)(=O)c2ccc(-c3c(C)noc3C)cc2)cc1
RP-LC retention time, s: 934

Molecule: Cc1nc2nc3c(cn2n1)C(=O)CCC3
RP-LC retention time, s: 593

Molecule: COc1cc(NC(=O)c2[nH]c3cc(C)sc3c2CN2CCOCC2)cc(OC)c1
RP-LC retention time, s: 718

RP-LC retention time in this record for CC(C)(C)NC(=O)CCc1c(-c2ccc(Br)cc2)nc2ccccn12 : 681

Please fill in: RP-LC retention time reported for CCNC(=O)c1c(C)c(-c2ccccc2)n(C)c1C = 1010

For COc1ccc(C2=C(C)C(N3CCC(C(=O)N(C)Cc4ccco4)CC3)=NS2(=O)=O)cc1 the molecule record lists RP-LC retention time as 815

get_value(item= O=C(C1CC(=O)N(c2ccccc2)C1)N1CCSCC1 (stereo unspecified) , readout=RP-LC retention time) returns 828

# molecule Cc1ccc(CNC(=O)C2(C)Cn3cnc(C(=O)NCc4ccccc4F)c3C(=O)N2C2CC2)cc1 (stereo unspecified) ; its RP-LC retention time = 780

// CC1CCN(c2cc3c(cc2NC(=O)C(C)(C)C)n(C)c(=O)c(=O)n3C)CC1 : RP-LC retention time value = 1010

Noted for Cc1ccc(-n2cc(C(=O)OCc3ccco3)c3ccccc3c2=O)cc1 : its RP-LC retention time reads 1170

RP-LC retention time reported for this molecule CCCNC(=O)c1nc(Nc2ccc(CC)cc2)c2ccccc2n1 : 813

For this molecule ( CCc1nc(-c2csc(S(=O)(=O)N3CCC(C(=O)NCc4ccccc4C)CC3)c2)no1 ), measured RP-LC retention time is 818

---

assay: gradient 5% acetonitrile 3 min, to 50% in 2 min, to 85% in 15 min, held 3 min, 100 µL/min; conditions: column: Zorbax Extend-C18 2.1 x 50 mm; eluents: water / acetonitrile, 0.1% formic acid
Could you mark each record yes if its RP-LC retention time falls strictly under 800 s, and no if it equals or exceeds it?

Worked set:
Compound: Cn1cc(C2=CCN(S(=O)(=O)c3ccc(F)c(Cl)c3)CC2)c2cccnc21
Class Label: no

Compound: Cc1ccc(NC(=O)N2CCC(OC3CCN(S(C)(=O)=O)CC3)CC2)cc1
Class Label: yes

is_below(RP-LC retention time, 800 s) for O=C(CC1CCCC1)NC(c1ccccc1)c1nnc(N2CCCCC2)o1 (centres undefined) ?
no

# TODO verify RP-LC retention time < 800 s strictly for this compound: Cc1cccc(NC(=O)N2CCc3nc(-c4ccccc4)ncc3C2)c1C
no

Is RP-LC retention time strictly under 800 s for the entry Cc1cc(NC(=O)c2ccccc2-c2nc(-c3ccccc3)no2)no1 ?
no

Bench note: check whether Cc1noc(C)c1Cc1ccc(C(=O)N2CCCC2c2nc(CCOCC3CC3)no2)o1 (centres undefined) shows RP-LC retention time below 800 s
no

Please let me know if O=C(NC1CCN(c2ccc(F)cc2)C1=O)c1ccc2c(c1)OCO2 (centres undefined) shows RP-LC retention time below 800 s.
yes

Quick check: does Cc1ccc(CNC(=O)C2(C)Cn3nc(C(=O)NCCN4CCCCC4)cc3C(=O)N2C)cc1 (centres undefined) have RP-LC retention time under 800 s?
yes

---

assay: gradient 5% acetonitrile 3 min, to 50% in 2 min, to 85% in 15 min, held 3 min, 100 µL/min; details: column: Zorbax Extend-C18 2.1 x 50 mm; eluents: water / acetonitrile, 0.1% formic acid
Label key: 1.0 means RP-LC retention time under 900 s; 0.0 means RP-LC retention time of 900 s or more.

Answered examples (3):
Molecule: Cc1nn(CC(=O)NCCN2CCCCC2C)c(=O)c2nc(-c3ccccc3)sc12 (centres undefined)
Class Label: 1.0
//
Molecule: Cc1nc2ccn(Cc3cccs3)c(=O)c2cc1C(=O)N1CCN(c2ccccn2)CC1
Class Label: 1.0
//
Molecule: Cc1ccc(Cn2c(N3CCCC(C(=O)NC4CCCCC4)C3)nc3ccsc3c2=O)cc1 (centres undefined)
Class Label: 0.0

is_below(RP-LC retention time, 900 s) for CC(C)Cn1c(=O)c2cc(C(=O)NC(C)c3cccs3)nn2c2ccccc21 (centres undefined) ?
0.0

Does the reported RP-LC retention time of O=C(Nc1ccc(N2CCOCC2)cc1)c1cc2ccccc2o1 stay below 900 s?
1.0

---

assay: gradient 5% acetonitrile 3 min, to 50% in 2 min, to 85% in 15 min, held 3 min, 100 µL/min; settings: column: Zorbax Extend-C18 2.1 x 50 mm; eluents: water / acetonitrile, 0.1% formic acid
Property Measured: RP-LC retention time (s)
Could you give me the number in s? Just the number is fine.

Compound: CC(C)n1cnnc1CC1CCN(C(=O)Nc2ccc3c(c2)OCCO3)CC1
RP-LC retention time (s): 625

Compound: O=C(CCC1CCN(S(=O)(=O)c2ccccc2F)CC1)NC1CC1
RP-LC retention time (s): 752

Compound: O=S(=O)(Nc1ccc(Cn2cncn2)cc1)c1ccc2c(c1)CCC2
RP-LC retention time (s): 759

Compound: O=C(c1cn2ccnc(-c3ccc(F)cc3)c2n1)N1CCN(c2ncccn2)CC1
RP-LC retention time (s): 756

Compound: O=C(CN1CCCc2nc(C3CC3)ncc2C1=O)NC1CC1
RP-LC retention time (s): 604

In plain terms, CCCCn1cc(S(=O)(=O)NCc2cccc(C(F)(F)F)c2)c2cccnc21 has a documented RP-LC retention time of 1050

The value of RP-LC retention time measured for the compound O=C(c1ccc(C(F)(F)F)s1)N1C[C@@H]2C[C@H]1C[C@@H]2NS(=O)(=O)c1cccs1 turned out to be 813

The compound listed as CCNC(=O)c1cc(=O)[nH]c2c(Cl)cccc12 shows RP-LC retention time equal to 614

response.value for Cc1cc(C)cc(S(=O)(=O)Nc2ccc3c(c2)CCC(=O)N3CC(C)C)c1 (field: RP-LC retention time) = 928

// field: RP-LC retention time; key: COc1ccc(NC(=O)CCCSc2ccc(F)cc2)c([N+](=O)[O-])c1 ; value = 983

Field RP-LC retention time (entry COc1ccc(-c2ccc(N3CCN(C(=O)c4cnc5ccccc5n4)CC3)nn2)cc1 ) reads 615
